These entries and their values trace back to the supplement of paper PMC12042874.

assay: amyloid nucleation score (Sup35N fusion, yeast selection) (log enrichment); library NNK3; higher = more nucleation; inactive = no reads after selection;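 further: zero at mode of non-aggregating sequences after 7 days selection at 30°C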
reported-endpoint: amyloid nucleation score

# example entries with known answers
GNDNYVVLFNCDV ... inactive
GYSTRYLSV ... inactive
FAYITHLKKYKSWTVPWTYY ... inactive
VEKAIAFGNF ... inactive
MGQAEGFLNGSSEQVEPTFA ... inactive
PTSFYPVQRPPRFCAGHFRS ... inactive

Go through the list and state amyloid nucleation score for each entry.
1. ICRLRPLSWMWFAAYSCLFN
2. LTYTYGVGVMIGIITHRLVC
3. GSACFPYFYTYSFRFLVAC
4. FSALQWGSRTYIFVYSGNMS
5. GDNRFLYELFLPHLNVVSNL
6. SVAGRCVSWNQRGKGLRNAR
7. WWTNLATPAKNQS

inactive
inactive
inactive
0.658
inactive
inactive
inactive

Go through the list and state amyloid nucleation score for each entry.
1. IFCKPWGSSFRIEPVAGTWI
2. CLWFISRQFDLYHRVMGNRS
3. TRILVRTGYHLLFLEG

1: inactive; 2: inactive; 3: inactive

----------
assay: amyloid nucleation score (Sup35N fusion, yeast selection) (log enrichment); library NNK3; higher = more nucleation; inactive = no reads after selection
reported-endpoint: amyloid nucleation score

# example entries with known answers
RHQHKRGAV ... -0.982
YASDWVRRPGRN ... inactive
VVDGLMAVFLSHVRVAIYYV ... inactive
NLWLECNLESSQRSSLFTKL ... inactive
RISLCVHFILFCFPSSRQSL ... 0.815
FFVHRCIYVNGWKGQTHSSQ ... inactive

Go through the list and state amyloid nucleation score for each entry.
1. RYDTNSRVRIIVSNF
2. SGVWFVGRVCELHSWFINLS
3. TCTLEFLNY
4. PDLTKNSWYLYSYRLV

inactive
inactive
inactive
inactive

Go through the list and state amyloid nucleation score for each entry.
1. RHRIRWSMRRNWSACVQ
2. MVLPLSYKQSCFQLCKFLDN

1. inactive
2. inactive

Go through the list and state amyloid nucleation score for each entry.
1. LSYFYKVPLDTAYMW
2. VDKWSCVDNFFSY
3. IVADLHIHCEPRFSSHLTYE
4. RLTARLINGMDY
5. TRICMCFEFVNTSY
6. LDWCAYWVSVISRWN

1. 1.07
2. inactive
3. inactive
4. 1.27
5. inactive
6. inactive

----------
assay: amyloid nucleation score (Sup35N fusion, yeast selection) (log enrichment); library NNK1; higher = more nucleation; inactive = no reads after selection
reported-endpoint: amyloid nucleation score

LGEMGRVSYLYVCLHWALLS ... 0.119
LTMCSGICEVIRQARDHHYR ... 0.149
SRVSYPGFYYGCPVFQYYSA ... 7.59
VLESLAYFPGFNEWCGDMMS ... 1.43
LTKRVGFDEMSLPHQDASSV ... -0.289

Go through the list and state amyloid nucleation score for each entry.
1. SLGFIFTEILYIFIVAWFII
2. AILRSAM
3. KVFSVHRHCQESVVGAVLCS
4. CSNRWCLKTRVERVMERGSV

1: 0.198; 2: 0.284; 3: -0.371; 4: 0.218

Go through the list and state amyloid nucleation score for each entry.
1. LKLCKVRMQTLLNDVGTSCP
2. SCDMAEFSEDLTLCLLNHK

[0.025, -0.651]

Go through the list and state amyloid nucleation score for each entry.
1. VWFNPYLNDRSREGGRVVWM
2. RYLIPTYF
3. VSTSNSYDSSQHDLDFRQSG
4. TVFDSLC
5. HAVSDFIPG

0.099
-1.76
-0.162
0.372
0.69

Go through the list and state amyloid nucleation score for each entry.
1. MMCGNLY
2. YRDDYACFLRPYPARCG
3. QMYFSFYLLCCLSSEFSI

1. 0.625
2. -0.141
3. 3.02

Go through the list and state amyloid nucleation score for each entry.
1. SGHDGARVVMRRILYTSKSG
2. SNVHCPWKL
3. FDVYFSVPFFTLLYNDPKWF
4. GFSILAPSKYVVNYWMHPQS
5. KHVGWSYG

[0.291, -1.74, 2.35, 7.69, 0.779]

Go through the list and state amyloid nucleation score for each entry.
1. KCGRVWHVFFVVSYQGVGST
2. QVSANSY
3. RYMDMLLRTDWDWLVSQCRF
4. CMLVYCEVASVGVSFKLWWR
5. GTFAWGHRFYVIAAYFILYD

[1.31, 3.59, -0.344, 1.73, "inactive"]

Go through the list and state amyloid nucleation score for each entry.
1. SCLYQGCYLNCVIDIMGCGL
2. SNDVIVWYPIDEGHAGCAYL

1. 5.83
2. 1.75

Go through the list and state amyloid nucleation score for each entry.
1. WSVISIEASLCRQVPLYANT
2. CVANLPGSKVLVWNTKFK
3. LGYVYSKSTSSTQSLFICSG
4. EFKLIDLFLLYWLSREHNQF

0.26
5.38
-0.287
0.391

----------
assay: amyloid nucleation score (Sup35N fusion, yeast selection) (log enrichment); library NNK3; higher = more nucleation; inactive = no reads after selection
reported-endpoint: amyloid nucleation score

TPYQYFFRNCWKMSYRRAKI ... inactive
SRAMVKVRSNFRQRK ... inactive
YPGFSAGCDVWQKFNYGVMT ... inactive
LLQSLGGKESNLGK ... inactive
HLSTRLARFPLL ... inactive
PFGVFHSSATTKRHFYMVGV ... inactive
TKGKLLSKHLGFVRCRVHRS ... inactive
SRGTRSK ... inactive

Go through the list and state amyloid nucleation score for each entry.
1. ENWTDGM
2. DSICYHAFYMEEGGS
3. WYLMCWCCLKVPVAQLM

1. inactive
2. inactive
3. 0.671

----------
assay: amyloid nucleation score (Sup35N fusion, yeast selection) (log enrichment); library NNK2; higher = more nucleation; inactive = no reads after selection
Answer each item with its documented amyloid nucleation score.
Give bare numbers.

VYCVDIFCTESLVCPTQTWG ... 6.05
LICGARYINFSGKGNY ... 0.023
WFDKFRMCEEFAYYFFLPQW ... -0.856

Go through the list and state amyloid nucleation score for each entry.
1. RAIDRRKVFARYVFWSFSWT
2. HLPGYSPIDCRKGLVLGRCT
3. QFGNVRLSS
4. WSRMLFGECRSGKLRLPMPR
5. YVGSFVGSGIVLLNNSAVRH
6. TLGREVSKVQNATSFLPMQA

1. -0.141
2. 0.027
3. 0.995
4. 3.73
5. 3.4
6. 0.926

Go through the list and state amyloid nucleation score for each entry.
1. NPRGWAVEMVDYHSTFLKPE
2. LYSLYTYVKRYCASRVRHRY
3. HGGQEAVHLRRCGGYDMSKA

1. 5.64
2. 0.688
3. 0.451

Go through the list and state amyloid nucleation score for each entry.
1. GINWSAVYR
2. IFWTELCNPKFSFC
3. GRFKITVTRYANVYSMLRVI

-0.083
9.44
1.02

----------
assay: amyloid nucleation score (Sup35N fusion, yeast selection) (log enrichment); library NNK2; higher = more nucleation; inactive = no reads after selection
I would appreciate it if you labelled entries T when amyloid nucleation score is -0.3 or higher, otherwise F.

Here's what some known entries look like.
NLRVSFGREDCL ... F
RYRSTLQYISVMGLDNT ... F
FITNFGACRYCCRWHM ... T
CSVVGWE ... T
LLMSCPLSLCSEGVTSLVEG ... T
YSVLFL ... F

Is amyloid nucleation score for `SLFVITYRPAYSSDFILNGG` at or above -0.3?
T

What would you report for `PIKCDRSFWRR` ?
T

What would you report for `APRRVSERFGSIVWVRRNS` ?
F

What would you report for `YNKLGCTARFTRAMWTFCGV` ?
T

What would you report for `KVSYMFLVTLSYGSWFPSSM` ?
F

What would you report for `VLITKYSFTRLEFTIKVTSS` ?
T

What would you report for `YGDYMFHPETAVSL` ?
T

----------
experiment: amyloid nucleation score (Sup35N fusion, yeast selection) (log enrichment); library NNK3; higher = more nucleation; inactive = no reads after selection
reported-endpoint: amyloid nucleation score

IALGNVRISRYRVLWAYLSS ... inactive
HRHNVGLCCAGDWHLVELGS ... 2.06
CVFYCSKLWIRYNNVMMISS ... 0.831
WIWSGMYSNWPNSAPVNIR ... inactive
LGQRWHVMLVLMSVYIF ... inactive
VLIYRRGFNYLRVLCCTTGF ... inactive
TFGHWAMYVSCWDRVVCGVD ... inactive
MRGFFCRIH ... inactive
RLLHCGRILWGFVNDLMIML ... inactive
HIHEDWFFS ... inactive

Go through the list and state amyloid nucleation score for each entry.
1. FLSYTPRATGYHFFRLSIFC
2. FIVYLSCPWVRRFIVVMEFM

inactive
inactive

Go through the list and state amyloid nucleation score for each entry.
1. FNSYKGNVSFAGW
2. AVGNCSSWGYGSSTLP
3. ESRSFCLNCQGWVSSEA
4. FTMSMYKGFRRCA
5. IHCLLLDRVTNLFLTMQAG

[-0.155, "inactive", "inactive", "inactive", "inactive"]
